Where do the numbers come from? From PubChem BioAssay.

assayText: COS7 lysate on small-molecule microarray, probe aHis, 635 nm (AID 1123);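 also: z-score combines 667nm fluorescence intensity with signal-to-noise per printed compound spot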
conditionLabel: COS7 cell lysate, fluorescence, higher = more signal
readoutKind: composite z-score
Number only, please.

Field: example entries. Status: answers known.
compound	composite z-score
C[N+](C)(C)CCCC[C@@H]1NC(=O)[C@@H]2C[C@H](C(=O)O)[C@H](c3ccc(O)cc3)N2C1=O	-0.555
O=C1C2C=CC(C(O)c3cc(C(F)(F)F)cc(C(F)(F)F)c3)N(Nc3ccc([N+](=O)[O-])cc3)C2C(=O)N1c1ccccc1 (centres undefined)	2.74

The compound listed as COC(=O)[C@@]1(Cc2ccc(OC)cc2)[C@H]2c3cc(C(=O)N(C)C)n(Cc4nc5ccccc5[nH]4)c3C[C@H]2CN1C(=O)c1ccccc1 has a reported composite z-score of 2.27

The compound listed as NC(=O)NCC#Cc1ccc2c(c1)[C@]1(C(=O)N2)[C@H](C(=O)Nc2nc3ccccc3s2)[C@H]2C(=O)O[C@H](c3ccccc3)[C@H](c3ccccc3)N2[C@@H]1c1ccc(O)cc1 has a reported composite z-score of -0.482

###

assayText: fission yeast growth modulation, primary screen, strain 972, OD600, 24 h, no modulator (AID 1090);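 also: basal condition with compound alone and no growth modifier present; test concentration not given here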
conditionLabel: S. pombe 972 growth, higher = more signal, called active from +8 up or from −8 down
readoutKind: z-score
Number only, please.

Field: example entries. Status: answers known.
molecule	z-score
CCOC(=CC(=O)OC)CC(O)c1cccc(Cl)c1 (configuration not stated)	-7.01
C=CCNC(=O)[C@H]1[C@@H]2C(=O)O[C@@H](c3ccccc3)[C@@H](c3ccccc3)N2[C@@H](c2ccccc2OCCO)[C@]12C(=O)N(C(=O)OCCOC)c1ccc(C#CC3=CCCCC3)cc12	-1.02
NC(=O)NCC#Cc1ccc2c(c1)[C@]1(C(=O)N2)[C@H](C(=O)Nc2nc3ccccc3s2)[C@H]2C(=O)O[C@H](c3ccccc3)[C@H](c3ccccc3)N2[C@@H]1c1ccc(O)cc1	3.26
CC(C)N1CC=CC23O[C@@H]4C=CCOC(=O)[C@@H]4[C@H]2C(=O)N(C(C)CO)[C@@H]3C1=O (some centres not stated)	-0.06
C=C1C2CC3C(=C4C(CO[C@@H]4[C@H]4CCCN4S(=O)(=O)c4ccccc4[N+](=O)[O-])C4C(=O)N(C)C(=O)C34)CC2C(=O)N1C (some centres not stated)	-4.92
COC(=O)[C@@]1(Cc2ccc(OC)cc2)[C@H]2c3cc(C(=O)N(C)C)n(Cc4ccccc4)c3C[C@H]2CN1C(=O)c1ccccc1	-0.55
C=C(C(=O)CC[C@H](OC(=O)c1cccnc1)c1ccc(CO)o1)C(C)C	-0.796
COCCOC(=O)N1C(=O)[C@@]2(c3cc(C#CC4=CCCCC4)ccc31)[C@H](c1ccc(O)cc1)N1[C@H](c3ccccc3)[C@H](c3ccccc3)OC(=O)[C@H]1[C@@H]2C(=O)Nc1nc2ccccc2s1	0.0687
COc1ccc([Si](C)(C)[C@H]2[C@H](CCn3cc([C@H](O)c4ccccc4)nn3)O[C@@]3(C(=O)N(Cc4ccc(N5CCC5=O)cc4)c4ccccc43)[C@@H]2C)cc1	0.158
CCCCC(CC)C(O)C1C=CC2C(=O)N(c3ccccc3)C(=O)C2N1Nc1ccc([N+](=O)[O-])cc1 (configuration not stated)	-0.126

Kindly consider the entry below.
The molecule listed as COCCOC(=O)N1C(=O)[C@@]2(c3cc(C#CCC(C(=O)OC)C(=O)OC)ccc31)[C@H](c1ccc(OCCO)cc1)N1[C@H](c3ccccc3)[C@H](c3ccccc3)OC(=O)[C@H]1[C@@H]2C(=O)N1CCN(c2ncccn2)CC1 has a reported z-score of 0.934

###

Tested on: PRMT1 (protein arginine N-methyltransferase 1)
assayText: PRMT1 binders on small-molecule microarrays, primary screen, biochemical, small-molecule microarray, 635 nm fluorescence (AID 1088);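 also: binding of Prmt1 protein to compounds spotted on small-molecule microarray slides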
conditionLabel: small-molecule microarray binding, higher = more signal
readoutKind: composite z-score
Number only, please.

molecule	composite z-score
C=C(CCCC)C(=O)CC[C@@H](OC(=O)c1ccccc1-c1ccccc1C(=O)O)c1cccc(OCCO)c1	1.53
CO[C@H]1O[C@H](CO)[C@@H](OC(=O)c2ccc(Br)cc2)[C@@H]2OC(=O)[C@@H](Cc3ccc4ccccc4c3)C/C=C/C[C@H](Cc3ccc4ccccc4c3)C(=O)O[C@@H]12	1.45
Cc1c(NC(=O)/C(C#N)=C/C=C/c2ccc(N(C)C)cc2)c(=O)n(-c2ccccc2)n1C	1.55
CN(C)CCCNC(=O)[C@@]1(C)c2ccccc2C(=O)N(Cc2cc(C(F)(F)F)cc(C(F)(F)F)c2)[C@H]1c1ccc(CO)cc1	0.0376
O=C1c2ccccc2[C@](Cc2ccccc2I)(C(=O)NCc2ccccc2)[C@H](c2ccc(CO)cc2)N1C1CCCCC1	1.27

PRMT1 (protein arginine N-methyltransferase 1) data for O=C(CCCCCCC(=O)Nc1ccccc1)N/N=C/c1ccccc1 ; its composite z-score: -0.998

PRMT1 (protein arginine N-methyltransferase 1) data for C=C(C(=O)CC[C@H](OC(C)=O)c1cccc(OCCO)c1)C(C)C ; its composite z-score: 0.385

PRMT1 (protein arginine N-methyltransferase 1) data for COC(=O)C[C@H]1O[C@]2(C(=O)N(C)c3ccccc32)[C@@H](C)[C@@H]1[Si](C)(C)c1ccc(C)cc1 ; its composite z-score: 1.12

PRMT1 (protein arginine N-methyltransferase 1) data for CN1C(=O)C2C=CC(C(O)C3CCCCC3)N(N3CCCCC3)C2C1=O (stereo unspecified) ; its composite z-score: 1.56

PRMT1 (protein arginine N-methyltransferase 1) data for COc1ccc([Si](C)(C)[C@@H]2[C@@H](CCO)O[C@]3(C(=O)N(Cc4cccc(N5C(=O)c6cccc7cccc5c67)c4)c4ccccc43)[C@H]2C)cc1 ; its composite z-score: 1.22

PRMT1 (protein arginine N-methyltransferase 1) data for CC1CC/C=C\[C@H]2OC34C=CCN(C(C)C)C(=O)[C@H]3N(CCCCCO)C(=O)[C@@H]4C2C(=O)O1 (stereo partly specified) ; its composite z-score: -0.897

###

The reader will find reported composite z-score values listed item by item below.
assayText: binders of probe aFST on microarray, primary screen, stem cell growth factor project, biochemical, small-molecule microarray, fluorescence 635/667 (AID 1086);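 also: score merges 667 nm fluorescence with signal-to-noise of each printed compound spot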
conditionLabel: higher = more signal
Number only, please.

Field: example entries. Status: answers known.
                                   compound  valuereported
0  CCCC=C(CCC)[C@@H](NP(=O)(c1ccccc1)c1ccccc1)c1ccc(C(F)(F)F)cc1          0.237
1  C=C(COC)/C(=C/C[C@@H](OC(=O)c1ccncc1)c1cccc(OCCO)c1)c1cnc2ccccc2c1           1.47
2  COC(=O)C1(Cc2ccccc2)C=C2C(=C(C(C)C)C(=O)C2C)CN1 (centres undefined)           1.24

The compound listed as O=C1C2C=CC(C(O)c3cc(C(F)(F)F)cc(C(F)(F)F)c3)N(Nc3ccc([N+](=O)[O-])cc3)C2C(=O)N1c1ccccc1 (centres undefined) has a reported composite z-score of 0.598

###

System: PRMT1 (protein arginine N-methyltransferase 1)
assayText: PRMT1 binders on small-molecule microarrays, primary screen, biochemical, small-molecule microarray, 635 nm fluorescence (AID 1088);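 also: binding of Prmt1 protein to compounds spotted on small-molecule microarray slides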
conditionLabel: small-molecule microarray binding, higher = more signal
Assign class by composite z-score: not lower than 0.5 means yes; lower than 0.5 means no.

(Q) Could you please find out whether COCCOC(=O)N1C(=O)[C@@]2(c3ccccc31)[C@H](C(=O)N1CCN(c3ncccn3)CC1)[C@H]1C(=O)O[C@H](c3ccccc3)[C@H](c3ccccc3)N1[C@@H]2c1ccc(OCCO)cc1 has composite z-score that meets 0.5 or exceeds it?
(A) yes

(Q) Could you please find out whether NCCCCCCNC(=O)[C@@H]1C[C@@H]2C(=O)N3CCC[C@H]3C(=O)N2[C@@H]1c1ccc(O)cc1 has composite z-score that meets 0.5 or exceeds it?
(A) yes

###

assayText: E. coli acrAB mutant growth effects, primary screen, E. coli filamentation inducers, strain DRC39, OD650, 48 h (AID 1179);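 also: screen aims at cell division blockers that make cells filament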
conditionLabel: E. coli DRC39 delta-acrAB growth, higher = more signal, called active from +8 up or from −8 down
readoutKind: z-score
Number only, please.

Field: example entries. Status: answers known.
compound	z-score
C=CCN1C(=O)[C@@]2(O[C@@H](CCO)[C@H]([Si](C)(C)c3ccc(OC)cc3)[C@H]2C)c2cc(N3C(=O)c4ccccc4Oc4ccccc43)ccc21	1.9
NC(N)=NCc1cn(CCc2c[nH]c3ccccc23)nn1	-0.0579
CN(C)CCCN1C(=O)[C@@]2(c3ccc([N+](=O)[O-])cc3)CC(=O)N(CC34CC5CC(CC(C5)C3)C4)[C@@H]2c2ccc(CO)cc21	0.567
C=C(C(=O)CC[C@H](OC(=O)c1cccnc1)c1cccc(OCCO)c1)C(C)C	0.297

The compound listed as CCCC=C(CCC)[C@@H](NP(=O)(c1ccccc1)c1ccccc1)c1ccc(C(F)(F)F)cc1 has a reported z-score of -0.93

The compound listed as O=C1O[C@@H](c2ccccc2)[C@@H](c2ccccc2)N2[C@@H](c3ccc(O)cc3)[C@]3(C(=O)Nc4ccccc43)[C@@H](C(=O)Nc3nc4ccccc4s3)[C@H]12 has a reported z-score of 0.251

The compound listed as COc1cc(CO)cc(I)c1O[C@H]1C=C(C(=O)NCCO)C[C@@H](N(Cc2ccc(F)cc2)C(=O)C2CCCO2)[C@@H]1O (stereo partly specified) has a reported z-score of 2.03

The compound listed as O=C1O[C@@H](c2ccccc2)[C@@H](c2ccccc2)N2[C@@H](c3ccccc3OCCO)[C@]3(C(=O)Nc4ccc(C#CCCO)cc43)[C@@H](C(=O)Nc3nc4ccccc4s3)[C@H]12 has a reported z-score of 0.695

The compound listed as O=C(O)[C@]1(Cc2ccccc2)N=C(c2ccc(OCCCO)cc2)O[C@@H]1c1ccccc1 has a reported z-score of 1.01

The compound listed as CC(C)NC(=O)[C@@]1(C)c2ccccc2C(=O)N(C(C)C)[C@H]1c1ccc(CO)cc1 has a reported z-score of -0.611

The compound listed as CC(C)CN1C(=O)[C@@]2(Cc3ccccc31)c1ccccc1C(=O)N(Cc1ccccc1C(F)(F)F)[C@H]2c1ccc(CO)cc1 has a reported z-score of 1.72
